System: Escherichia coli (including ESBLs, non-ESBLs)
Test: MIC, two-fold agar dilution (CLSI), clinical isolates
Type: cell-based
Settings: strain ECO− 15-2
Outcome measure: MIC (anti-bacterial activity) (µg/mL)

Test smiles	Outcome measure	Result modifier	Quantitative result
O=CN(O)C[C@@H](CC1CCCC1)C(=O)N1CC2(CC2)C[C@H]1C(=O)Nc1ncccc1F	MIC (anti-bacterial activity)	>	32
CCCC[C@H](CN(O)C=O)C(=O)N1CC2(CC2)C[C@H]1C(=O)Nc1cnccn1	MIC (anti-bacterial activity)	=	64
Cc1cc(NC(=O)[C@@H]2CC3(CC3)CN2C(=O)[C@H](CC2CCCC2)CN(O)C=O)no1	MIC (anti-bacterial activity)	=	32
CCCC[C@H](CN(O)C=O)C(=O)N1CC2(CC2)C[C@H]1C(=O)Nc1ccno1	MIC (anti-bacterial activity)	=	32
CCCC[C@H](CN(O)C=O)C(=O)N1CC2(CC2)C[C@H]1c1nc2ccccc2n1CCN(C)C	MIC (anti-bacterial activity)	=	16
O=CN(O)C[C@@H](CC1CCCC1)C(=O)N1CC2(CC2)C[C@H]1C(=O)Nc1ccc(F)cn1	MIC (anti-bacterial activity)	=	32
CCCC[C@H](CN(O)C=O)C(=O)N1CC2(CC2)C[C@H]1C(=O)Nc1nccs1	MIC (anti-bacterial activity)	=	64
O=CN(O)C[C@@H](CC1CCCC1)C(=O)N1CC2(CC2)C[C@H]1C(=O)Nc1cc[nH]n1	MIC (anti-bacterial activity)	>	32
CCCC[C@H](CN(O)C=O)C(=O)N1CC2(CC2)C[C@H]1C(=O)Nc1cc(C)on1	MIC (anti-bacterial activity)	=	64
CC(C)(C)c1cc(NC(=O)[C@@H]2CC3(CC3)CN2C(=O)[C@H](CC2CCCC2)CN(O)C=O)no1	MIC (anti-bacterial activity)	=	32
Cc1csc(NC(=O)[C@@H]2CC3(CC3)CN2C(=O)[C@H](CC2CCCC2)CN(O)C=O)n1	MIC (anti-bacterial activity)	>	32
CCCC[C@H](CN(O)C=O)C(=O)N1CC2(CC2)C[C@H]1C(=O)Nc1ccc(N2CCOCC2)cc1	MIC (anti-bacterial activity)	>	32
O=CN(O)C[C@@H](CC1CCCC1)C(=O)N1CC2(CC2)C[C@H]1C(=O)Nc1cnccn1	MIC (anti-bacterial activity)	=	32
Cc1cnc(NC(=O)[C@@H]2CC3(CC3)CN2C(=O)[C@H](CC2CCCC2)CN(O)C=O)s1	MIC (anti-bacterial activity)	=	16
CCCC[C@H](CN(O)C=O)C(=O)N1CC2(CC2)C[C@H]1C(=O)Nc1ccncn1	MIC (anti-bacterial activity)	>	32
O=CN(O)C[C@@H](CC1CCCC1)C(=O)N1CC2(CC2)C[C@H]1C(=O)Nc1ccno1	MIC (anti-bacterial activity)	=	32

---

Tested on: Escherichia coli (including ESBLs, non-ESBLs)
Assay: MIC, two-fold agar dilution (CLSI), clinical isolates
Assay type: cell-based
Conditions: clinical isolate ECO+ 15-4
Outcome measure: Anti-bacterial activity (MIC), strain ECO+ 15-4

Molecule	Study system	Result
O=C(C[C@@H](CC1CCCC1)C(=O)N1CC2(CC2)C[C@H]1C(=O)Nc1cccnn1)NO [Example 66]	Escherichia coli (including ESBLs, non-ESBLs)	16 µg/mL
CCCC[C@H](CC(=O)NO)C(=O)N1CC2(CC2)C[C@H]1C(=O)Nc1ncco1 [Example 53]	Escherichia coli (including ESBLs, non-ESBLs)	> 32 µg/mL
O=C(C[C@@H](CC1CCCC1)C(=O)N1CC2(CC2)C[C@H]1C(=O)Nc1ccc(F)cn1)NO [Example 64]	Escherichia coli (including ESBLs, non-ESBLs)	16 µg/mL
O=C(C[C@@H](CC1CCCC1)C(=O)N1CC2(CC2)C[C@H]1C(=O)Nc1cnccn1)NO [Example 62]	Escherichia coli (including ESBLs, non-ESBLs)	0.5 µg/mL
